Measured melting point values are reported for all entries that follow.

Use these answered entries as a reference point.
                            compound   assay_metric       measured
0  O=c1[nH]cc(S(=O)(=O)Cl)c(=O)[nH]1  melting point  155 to 157 °C
1  COC(=O)c1cc(C(=O)O)n(-c2ccccc2)n1  melting point  161 to 163 °C
2         O=C(O)CCc1nc(Cc2ccccc2)no1  melting point    66 to 68 °C

## Task Item under review: `CN(C)CCOc1cc(N)ccn1` . Reported melting point?
## Result 87 to 89 °C

## Task Try the compound `CC(=O)Oc1ccc2ccc(O)cc2c1`
## Result 157 to 159 °C

## Task Another: `O=C(O)c1ccc(NC(=O)c2ccccc2)cc1`
## Result 297 to 299 °C

## Task Next: `Cc1nc(CC(C)C)sc1C(=O)O`
## Result 169 to 171 °C

## Task What about this compound? `Cc1oncc1C(=O)Nc1ccc(C(=O)O)cc1`
## Result 229 to 231 °C

## Task Next up: `NC(=O)c1cccnc1S`
## Result 297 to 299 °C

## Task // next record `O=C(O)Cc1cc2c(cc1[N+](=O)[O-])OCCO2`
## Result 219 to 221 °C

## Task Let us now turn to `S=C(c1cn(-c2ccccc2)nc1-c1ccccc1)N1CCCCC1`
## Result 124 to 126 °C

## Task Record: `O=C(O)c1cc(I)c(F)cc1F`
## Result 163 to 165 °C

## Task Follow-up entry: `NNC(=O)NCc1ccco1`
## Result 88 to 90 °C

## Task Record: `N#Cc1cc(F)c(S(=O)(=O)Cl)c(F)c1`
## Result 92 to 94 °C

## Task Request: `Cn1c(-c2ccccc2)c(C(=O)CCl)c2ccccc21`
## Result 146 to 148 °C

## Task What about `N#Cc1cc(Oc2ccc(CC(=O)O)cc2)ccn1` ?
## Result 169 to 171 °C

## Task Now the compound `O=C(NC1CC1)c1cc(Cl)nc2ccccc12`
## Result 190 to 193 °C

## Task Try this compound next: `Cc1cc(NC(C)C)ccc1C(N)=O`
## Result 132 to 134 °C

## Task Same question, `OCCNc1ncccn1` this time
## Result 76 to 78 °C

## Task Okay, and `O=c1[nH]cnc2nc(N3CCOCC3)sc12` ?
## Result 397 to 399 °C

## Task How about `CC(C)Oc1ccc(S(=O)(=O)N2CCOCC2)cc1N` ?
## Result 149 to 151 °C

## Task Input O=C(O)CC(c1ccccc1)N1CCOC1=O (stereo not drawn)
## Result 123 to 125 °C

## Task And for `CCOC(=O)C1=NN(CC)C(=O)C1` ?
## Result 135 to 137 °C

## Task And `CC(=O)Nc1cc(F)c(F)cc1N` ?
## Result 162 to 164 °C

---

Assay metric: melting point

>>> df
                                  compound       measured
0             O=C(O)C1CCN(C(=O)c2ccco2)CC1  127 to 129 °C
1                       CC(=O)NCCCCCC(N)=O  112 to 114 °C
2                      COc1ccccc1OCC(=O)NN  101 to 103 °C
3  CC(C)CNCC(O)c1ccccc1 (stereo not drawn)    61 to 63 °C
4                   O=C(CCl)NC(C1CC1)C1CC1  114 to 116 °C
5              NC(=O)CCN(C(=O)CCl)c1ccccc1  143 to 145 °C

## Task Recorded melting point for NC(=O)C(Cl)c1ccc(Br)cc1F (stereo not drawn) , please?
## Result 101 to 103 °C

## Task Lookup `Nc1ccc(Br)c(I)c1`
## Result 74 to 76 °C

All values here come from a melting point compilation (Tetko et al.).
